# MEASUREMENT NOTES: Bioavailability in ip dosed rat
# Assay type: ADME, organism-based
# CONDITIONS USED: in vivo
MEASURED METRIC: bioavailability

INSERT INTO assay_data (molecule, measured_metric, reported) VALUES
  ('NC(CCCCB(O)O)(C(=O)O)C1CCN(CCCc2ccc(Cl)cc2Cl)CC1 (racemic)', 'bioavailability', '< 5%'),
  ('NC(CCCCB(O)O)(C(=O)O)C1CC2CCC(C1)N2Cc1ccccc1 (racemic)', 'bioavailability', '< 5%'),
  ('NC(CCCCB(O)O)(C(=O)O)C1CCNCC1 (racemic)', 'bioavailability', '< 5%'),
  ('NC(CCCCB(O)O)(C(=O)O)C1CCN(Cc2ccc(Cl)cc2)CC1 (racemic)', 'bioavailability', '< 5%'),
  ('NC(CCCCB(O)O)(C(=O)O)C1CCN(C(=S)NCc2ccc(Cl)cc2)CC1 (racemic)', 'bioavailability', '< 5%'),
  ('NC(CCCCB(O)O)(C(=O)O)C1CCN(CCCc2ccc(C(F)(F)F)cc2)CC1 (racemic)', 'bioavailability', '< 5%'),
  ('NC(CCCCB(O)O)(C(=O)O)C1CCN(CCc2ccc(Cl)cc2Cl)CC1 (racemic)', 'bioavailability', '< 5%'),
  ('NC(CCCCB(O)O)(C(=O)O)C1CC2CCC(C1)N2Cc1ccc(F)c(F)c1 (racemic)', 'bioavailability', '< 5%'),
  ('NC(CCCCB(O)O)(C(=O)O)C1CC2CCC(C1)N2 (racemic)', 'bioavailability', '< 5%');

----------
# MEASUREMENT NOTES: Octanol-phosphate buffer partition coefficient, log D of the compound by shake-flask method
# Format: physicochemical
Classify: class 1 when logD is strictly less than -0.4; class 0 when logD is not.

INSERT INTO results (molecule, class_assignment) VALUES
  ('NC(CCCCB(O)O)(C(=O)O)C1CCN(Cc2ccc(Cl)cc2)CC1 (racemic)', 'class 0'),
  ('NC(CCCCB(O)O)(C(=O)O)C1CCN(C(=O)Nc2ccc(Cl)cc2)CC1 (racemic)', 'class 0'),
  ('NC(CCCCB(O)O)(C(=O)O)C1CCN(Cc2ccc(Cl)c(Cl)c2)CC1 (racemic)', 'class 0'),
  ('NC(CCCCB(O)O)(C(=O)O)C1CC2CCC(C1)N2Cc1ccc(Cl)c(Cl)c1 (racemic)', 'class 0'),
  ('NC(CCCCB(O)O)(C(=O)O)C1CCN(CCCc2ccc(Cl)cc2Cl)CC1 (racemic)', 'class 0'),
  ('NC(CCCCB(O)O)(C(=O)O)C1CCNCC1 (racemic)', 'class 1'),
  ('CC(C)CCN1CCC(C(N)(CCCCB(O)O)C(=O)O)CC1 (racemic)', 'class 1');

----------
clearance overview
# MEASUREMENT NOTES: Clearance in iv dosed rat
# Format: ADME, organism-based
# CONDITIONS USED: in vivo
MEASURED METRIC: clearance

INSERT INTO results (compound, reported) VALUES
  ('NC(CCCCB(O)O)(C(=O)O)C1CC2CCC(C1)N2Cc1ccc(Cl)c(Cl)c1 (racemic)', '16.8 mL/min/kg'),
  ('NC(CCCCB(O)O)(C(=O)O)C1CCN(Cc2ccc(Cl)c(Cl)c2)CC1 (racemic)', '7.87 mL/min/kg');

Numbers sourced from ChEMBL document CHEMBL2417426.
